These entries and their values trace back to ChEMBL document CHEMBL1201862.

subject of test: Sentrin-specific protease 8 (Homo sapiens, UniProt Q96LD8)
Sequence (Q96LD8 whole entry): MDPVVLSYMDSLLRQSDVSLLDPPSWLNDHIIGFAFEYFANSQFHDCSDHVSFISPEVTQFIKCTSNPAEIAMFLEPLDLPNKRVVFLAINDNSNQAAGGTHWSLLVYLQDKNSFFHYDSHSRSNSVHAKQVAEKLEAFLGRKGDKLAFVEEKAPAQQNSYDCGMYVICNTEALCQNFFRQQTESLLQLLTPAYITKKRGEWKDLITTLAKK
Format: functional
Active and inactive are the calls of the source.
Reply using exactly one outcome from active, inactive

Per the assay record, what outcome was assigned to `Cc1ccc(NC(=O)C(=O)c2c[nH]c3ccccc23)cc1` ? inactive

Test call for this compound, please: `COc1ccc2nc(NC(=O)c3ccc([N+](=O)[O-])o3)sc2c1` active

Recorded call for `O=C(O)c1ccc(-c2nc(O)c3c(-c4ccccc4)csc3n2)cc1` ? active

// outcome(item) with item = `COc1nc(C)ccc1-c1noc(-c2cccs2)n1` active

====

subject of test: Replicative DNA helicase DnaB (Mycobacterium tuberculosis)
Sequence (P9WMR3 1-399, added parts left off): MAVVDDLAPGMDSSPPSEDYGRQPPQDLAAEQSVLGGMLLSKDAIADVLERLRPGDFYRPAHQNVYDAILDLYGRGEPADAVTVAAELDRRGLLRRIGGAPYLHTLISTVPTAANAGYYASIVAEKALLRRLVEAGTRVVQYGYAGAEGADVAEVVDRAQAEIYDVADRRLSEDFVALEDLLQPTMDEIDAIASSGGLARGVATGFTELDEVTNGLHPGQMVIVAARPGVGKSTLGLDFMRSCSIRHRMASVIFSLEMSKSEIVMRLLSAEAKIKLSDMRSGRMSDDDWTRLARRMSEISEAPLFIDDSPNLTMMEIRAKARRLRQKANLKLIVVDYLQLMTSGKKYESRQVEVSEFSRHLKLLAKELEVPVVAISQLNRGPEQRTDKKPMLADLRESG
assay explanation: DnaB intein splicing inhibitors, dose response, biochemical, cell-free fluorescence (AID 449749)
Type: functional
Active and inactive are the calls of the source.
Answer each item with its documented AC50.

# AC50 lookup, item `Cc1[nH]n(-c2ccccc2)c(=O)c1C(c1cccc([N+](=O)[O-])c1)c1c(C)[nH]n(-c2ccccc2)c1=O` 3.28 µM (active)

So what does the record say about AC50 for CCC(C)[C@@H](NC(=O)OC(C)(C)C)c1nnc(S(=O)(=O)Cc2cccc(C)c2)o1 (some centres undefined) ? 2.31 µM (active)

Record request: AC50 value, item `Cc1cc(C)c(S(=O)(=O)ON2C(=O)c3ccccc3C2=O)cc1C` > 380 µM (inactive)

Name the recorded AC50 for `CCCc1c(O)oc2nnc(C)c-2c1C` . 23.6 µM (active)

Which AC50 is reported for this molecule? `Oc1ccc(O)c(Cc2nc3ccccc3s2)c1` 33.1 µM (active)

Recorded AC50 of `O=C(Nc1ccc(Cl)c(Cl)c1)Nc1ccccc1NS(=O)(=O)c1cccs1` , please. 4.19 µM (active)

Which AC50 value belongs to `COc1ccc2nc3cc(Cl)ccc3c(Nc3cc(C(C)C)c(O)cc3C)c2c1` ? > 380 µM (inactive)

# query: AC50 of entry `CN(Cc1ccc(Cl)s1)C(=O)CCl` 50.5 µM (active)

Name the recorded AC50 for N#CC1=C(N)Oc2[nH]nc(-c3ccc(F)cc3)c2C1c1cccnc1 (centres undefined) . 7.8 µM (active)

====

Give measured AC50 for each item. Keep answers brief.
subject of test: Heat shock protein HSP 90-alpha (Homo sapiens, UniProt P07900)
Format: functional, organism-based
Calls of active or inactive are those of the source.

What AC50 value was documented for this molecule, `O=C1C(=C(I)I)c2ccccc2-c2ccccc21` ? 5.65 µM (active)

What value of measured AC50 is listed for `Oc1ccc(-c2nc3ccc4ccccc4c3c3c2CCC3)cc1O` ? 6.97 µM (active)

Give its AC50 value. Item: `CCCCCCCCCCCCCC(=O)NO` 2.71 µM (active)

I have this molecule here, `O=C(c1ccccc1)c1cc(Cl)ccc1N1C(=O)C=CC1=O` , and I need its recorded AC50. 0.552 µM (active)

Which measured AC50 value corresponds to `COc1cccc(/C=N/NC(=O)C(=O)Nc2ccccc2OC(F)(F)C(F)F)c1O` ? 4.2 µM (active)

Looking for the measured AC50 of `O=C(OCC(=O)c1c[nH]c2ccccc12)c1ccc([N+](=O)[O-])s1` , can you help? 3.8 µM (active)

====

subject of test: Voltage-dependent T-type calcium channel subunit alpha-1H (Homo sapiens)
Sequence (O95180 whole entry): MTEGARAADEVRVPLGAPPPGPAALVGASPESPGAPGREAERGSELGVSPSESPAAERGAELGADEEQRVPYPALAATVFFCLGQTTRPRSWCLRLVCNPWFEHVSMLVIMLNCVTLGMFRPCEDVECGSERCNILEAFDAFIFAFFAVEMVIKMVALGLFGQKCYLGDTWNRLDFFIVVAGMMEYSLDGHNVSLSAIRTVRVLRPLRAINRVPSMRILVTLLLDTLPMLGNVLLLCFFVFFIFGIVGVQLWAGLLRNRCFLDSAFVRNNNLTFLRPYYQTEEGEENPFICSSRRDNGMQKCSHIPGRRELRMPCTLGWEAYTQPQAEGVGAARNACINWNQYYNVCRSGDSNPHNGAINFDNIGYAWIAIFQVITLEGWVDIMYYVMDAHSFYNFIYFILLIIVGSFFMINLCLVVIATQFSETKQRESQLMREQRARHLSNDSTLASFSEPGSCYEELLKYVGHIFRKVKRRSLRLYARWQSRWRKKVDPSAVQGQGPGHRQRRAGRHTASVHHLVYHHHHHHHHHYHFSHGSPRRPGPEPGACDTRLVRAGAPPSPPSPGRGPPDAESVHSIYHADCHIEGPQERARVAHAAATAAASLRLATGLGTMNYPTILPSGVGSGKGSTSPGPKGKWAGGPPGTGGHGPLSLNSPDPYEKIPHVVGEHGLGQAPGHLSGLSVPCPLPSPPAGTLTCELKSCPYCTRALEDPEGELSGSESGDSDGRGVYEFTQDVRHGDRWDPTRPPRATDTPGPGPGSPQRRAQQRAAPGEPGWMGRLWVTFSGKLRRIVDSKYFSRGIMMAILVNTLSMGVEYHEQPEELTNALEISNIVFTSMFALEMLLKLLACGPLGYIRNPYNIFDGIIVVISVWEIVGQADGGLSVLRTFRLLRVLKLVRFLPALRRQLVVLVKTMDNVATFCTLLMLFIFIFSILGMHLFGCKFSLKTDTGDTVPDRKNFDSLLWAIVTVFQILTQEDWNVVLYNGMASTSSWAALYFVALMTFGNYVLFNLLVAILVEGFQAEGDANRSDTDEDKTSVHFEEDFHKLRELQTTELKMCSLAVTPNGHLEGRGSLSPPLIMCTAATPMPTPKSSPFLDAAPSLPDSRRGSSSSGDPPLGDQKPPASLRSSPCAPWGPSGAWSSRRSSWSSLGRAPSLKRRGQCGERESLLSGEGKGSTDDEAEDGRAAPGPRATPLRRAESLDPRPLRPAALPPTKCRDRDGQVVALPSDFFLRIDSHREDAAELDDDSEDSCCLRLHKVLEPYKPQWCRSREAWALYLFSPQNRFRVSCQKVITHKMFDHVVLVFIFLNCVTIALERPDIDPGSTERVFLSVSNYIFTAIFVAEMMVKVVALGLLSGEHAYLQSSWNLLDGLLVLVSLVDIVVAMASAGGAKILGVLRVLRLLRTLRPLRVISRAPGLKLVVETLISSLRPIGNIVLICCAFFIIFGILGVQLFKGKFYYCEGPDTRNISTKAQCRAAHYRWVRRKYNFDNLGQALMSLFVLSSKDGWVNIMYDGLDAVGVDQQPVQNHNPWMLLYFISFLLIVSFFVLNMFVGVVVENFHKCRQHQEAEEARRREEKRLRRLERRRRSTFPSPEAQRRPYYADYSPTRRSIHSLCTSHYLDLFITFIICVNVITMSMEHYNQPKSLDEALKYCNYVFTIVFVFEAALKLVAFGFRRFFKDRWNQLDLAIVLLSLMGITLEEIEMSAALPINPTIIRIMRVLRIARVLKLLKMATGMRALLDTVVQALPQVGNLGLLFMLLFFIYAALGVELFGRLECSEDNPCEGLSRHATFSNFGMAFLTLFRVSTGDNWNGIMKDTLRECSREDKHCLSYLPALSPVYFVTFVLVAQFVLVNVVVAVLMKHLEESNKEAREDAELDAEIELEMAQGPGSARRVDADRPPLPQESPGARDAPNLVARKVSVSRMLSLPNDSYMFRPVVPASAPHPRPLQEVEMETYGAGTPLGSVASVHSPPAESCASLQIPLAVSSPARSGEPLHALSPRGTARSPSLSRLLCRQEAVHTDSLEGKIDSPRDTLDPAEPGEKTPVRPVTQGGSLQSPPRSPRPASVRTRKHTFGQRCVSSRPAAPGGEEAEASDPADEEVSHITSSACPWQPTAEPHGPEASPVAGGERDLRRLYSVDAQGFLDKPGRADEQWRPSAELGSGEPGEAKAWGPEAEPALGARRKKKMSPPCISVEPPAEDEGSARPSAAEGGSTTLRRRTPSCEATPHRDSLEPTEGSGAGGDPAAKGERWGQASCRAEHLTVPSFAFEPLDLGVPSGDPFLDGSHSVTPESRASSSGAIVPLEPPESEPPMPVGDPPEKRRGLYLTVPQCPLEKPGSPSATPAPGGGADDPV
Assay type: functional
The source made the active and inactive calls.
Hi there, I'd appreciate the recorded EC50 for every entry that follows.

What EC50 value was documented for this molecule, COc1ccc(-c2nc(CSCC(=O)NC3CCCc4ccccc43)c(C)o2)cc1 (stereo not given) ? 3.95 µM (active)

Which EC50 is reported for this molecule? `O=C(Nc1ccccc1C(F)(F)F)c1ccc(CN2CCC(Cc3ccccc3)CC2)cc1` 0.227 µM (active)

What does the data say about its EC50? Entry: Cc1cccc(N2CCN(C(=O)C(Cc3ccccc3)n3cccc3)CC2)c1C (stereo not given) 8.08 µM (active)

Data request, read-out EC50, for COc1cc(NC(=O)C2COc3ccccc3O2)c(OC)cc1Cl (stereo not given) 8.09 µM (active)

Please give the measured EC50 for this molecule: Fc1ccc(C(c2nnnn2C2CCCC2)N(Cc2ccco2)CC2CCCO2)cc1 (stereo not given) 3.83 µM (active)
